Assay System: Toll-like receptor 7 (Homo sapiens)
Sequence (Q9NYK1 whole entry): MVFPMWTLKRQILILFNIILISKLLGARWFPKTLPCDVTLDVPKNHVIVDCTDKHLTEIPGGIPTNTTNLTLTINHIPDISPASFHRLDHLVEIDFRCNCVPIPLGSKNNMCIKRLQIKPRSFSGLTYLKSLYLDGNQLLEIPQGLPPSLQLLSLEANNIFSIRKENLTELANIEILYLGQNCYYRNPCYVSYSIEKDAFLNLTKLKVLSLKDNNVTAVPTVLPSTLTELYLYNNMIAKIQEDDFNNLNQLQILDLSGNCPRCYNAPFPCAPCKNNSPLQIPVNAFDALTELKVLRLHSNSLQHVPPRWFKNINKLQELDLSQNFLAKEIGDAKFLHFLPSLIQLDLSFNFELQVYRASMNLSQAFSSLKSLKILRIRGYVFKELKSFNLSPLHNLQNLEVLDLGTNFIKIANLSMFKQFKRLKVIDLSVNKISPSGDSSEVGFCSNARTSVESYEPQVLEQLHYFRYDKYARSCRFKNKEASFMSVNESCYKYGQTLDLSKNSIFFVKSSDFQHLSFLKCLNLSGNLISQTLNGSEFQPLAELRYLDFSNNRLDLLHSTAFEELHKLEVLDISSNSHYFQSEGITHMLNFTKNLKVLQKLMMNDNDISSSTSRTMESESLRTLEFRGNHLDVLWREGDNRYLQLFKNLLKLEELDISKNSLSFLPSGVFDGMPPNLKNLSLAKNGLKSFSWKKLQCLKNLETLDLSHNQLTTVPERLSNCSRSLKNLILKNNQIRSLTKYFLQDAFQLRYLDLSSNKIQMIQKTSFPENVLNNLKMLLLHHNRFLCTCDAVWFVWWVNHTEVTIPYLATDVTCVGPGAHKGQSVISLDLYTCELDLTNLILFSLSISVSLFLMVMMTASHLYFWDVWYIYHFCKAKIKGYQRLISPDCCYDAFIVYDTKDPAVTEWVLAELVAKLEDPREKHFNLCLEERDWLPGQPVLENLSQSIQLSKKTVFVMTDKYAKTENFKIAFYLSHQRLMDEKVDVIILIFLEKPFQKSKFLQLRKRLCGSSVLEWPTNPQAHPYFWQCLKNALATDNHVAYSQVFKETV
Measurement Description: Agonist activity at human TLR7 in HEK293 cells cotransfected with SEAP reporter gene assessed as activity of SEAP incubated for 24 hrs by quanti-blue staining based SEAP reporter gene assay
Type: cell-based
Experimental Context: read-out: EC50
Outcome Measure: pEC50
For clarity, pEC50 is expressed as the negative log10 of concentration in mol/L.

Here is how some molecules turned out for pEC50.
| Molecule | pEC50 |
| --- | --- |
| FC(F)(F)c1nc(N2CCCC2)c2ccccc2n1 | 4.81 |
| FC(F)(F)c1nc(NCC2CC2)c2ccccc2n1 | 4.82 |
| FC(F)(F)c1nc(NC2CCCC2)c2ccccc2n1 | 4.96 |
| CCCNc1nc(C(F)(F)F)nc2ccccc12 | 4.36 |
| CCCCn1cnc2c(=O)oc3ccccc3c21 | 3.97 |
| CCN(CC)c1ccc2c(c1)oc(=O)c1ncn(CC(C)C)c12 | 4.52 |
| COc1ccc2c(c1)oc(=O)c1ncn(CC(C)C)c12 | 3.55 |
| CC1CCCN(c2nc(C(F)(F)F)nc3ccccc23)C1 (stereo not drawn) | 5.40 |

Give pEC50 only, for `FC(F)(F)c1nc(NC2CCN(C3CC3)CC2)c2ccccc2n1` , using Toll-like receptor 7 (Homo sapiens) data.
4.18

Fetch value of pEC50 on Toll-like receptor 7 (Homo sapiens) for `CC(C)CNc1cc(C(F)(F)F)nc2ccccc12` .
5.20

Report pEC50 on Toll-like receptor 7 (Homo sapiens) for this entry: `CC(C)Cn1cnc2c(=O)oc3ccc(O)cc3c21`
5.74

Look up and report measured pEC50 (Toll-like receptor 7 (Homo sapiens)) for the following molecule: `CC(C)Nc1nc(C(F)(F)F)nc2ccccc12`
4.24
